Target: full-length human Mineralocorticoid Receptor (MR) (Homo sapiens)
Construct: host or cells: PathHunter CHO-K1 cells
Sequence (P08235 1-984): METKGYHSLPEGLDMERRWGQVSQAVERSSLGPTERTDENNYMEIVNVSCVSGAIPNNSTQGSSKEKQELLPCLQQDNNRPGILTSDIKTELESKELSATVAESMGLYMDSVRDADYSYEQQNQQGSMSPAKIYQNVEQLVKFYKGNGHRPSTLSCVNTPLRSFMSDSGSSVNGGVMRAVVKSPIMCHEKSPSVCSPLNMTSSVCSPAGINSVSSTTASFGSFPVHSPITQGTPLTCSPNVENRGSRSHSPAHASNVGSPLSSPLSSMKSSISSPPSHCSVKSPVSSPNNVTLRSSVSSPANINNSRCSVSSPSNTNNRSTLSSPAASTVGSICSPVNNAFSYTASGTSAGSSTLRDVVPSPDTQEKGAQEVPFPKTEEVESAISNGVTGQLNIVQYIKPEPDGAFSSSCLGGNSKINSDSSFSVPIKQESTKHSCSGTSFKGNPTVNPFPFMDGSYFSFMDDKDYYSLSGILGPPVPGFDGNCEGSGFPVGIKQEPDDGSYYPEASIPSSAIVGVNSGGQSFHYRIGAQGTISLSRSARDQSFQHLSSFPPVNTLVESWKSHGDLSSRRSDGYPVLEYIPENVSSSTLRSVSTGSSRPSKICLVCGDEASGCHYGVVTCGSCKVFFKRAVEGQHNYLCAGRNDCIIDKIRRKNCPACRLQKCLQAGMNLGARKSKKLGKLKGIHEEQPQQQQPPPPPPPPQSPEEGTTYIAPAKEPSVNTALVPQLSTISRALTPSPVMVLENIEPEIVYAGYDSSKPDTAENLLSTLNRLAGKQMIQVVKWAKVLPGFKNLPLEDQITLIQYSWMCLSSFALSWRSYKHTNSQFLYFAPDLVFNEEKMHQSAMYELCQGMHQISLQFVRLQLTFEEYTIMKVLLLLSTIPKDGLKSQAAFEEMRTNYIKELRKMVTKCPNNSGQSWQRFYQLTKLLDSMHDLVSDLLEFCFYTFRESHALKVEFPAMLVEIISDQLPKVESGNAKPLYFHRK
Experiment: human MR NH Pro assay (PathHunter Protein:Protein interaction assay), MR antagonist activity
Format: cell-based
Conditions: PathHunter CHO-K1 cells overexpressing human MR; aldosterone about 0.3 nM; 6 hours at 37° C.; luminescence; read-out: Primary Assay IP rating (IP = inflection point for a given dose-response titration curve)
measure-name: IC50

Prompt: Consider the molecule COC(=O)C(c1ccc(F)cc1Cl)n1ccc2ccc(Cl)cc21 (stereo not drawn) and give its measured IC50.
Response: 500 to 5000 nM

Prompt: Another molecule: CCC(CCCO)(c1ccc(Cl)cc1)n1ccc2c(NS(C)(=O)=O)cccc21 (stereo not drawn)
Response: < 100 nM

Prompt: // same read-out, input: CCC(C(=O)NCCOC)(c1ccc(Cl)cc1)n1ccc2c(NS(C)(=O)=O)cccc21 (stereo not drawn)
Response: 500 to 5000 nM

Prompt: Try CC(C)(C)OC(=O)C(CC#N)(c1ccc(Cl)cc1)n1ccc2c(NS(C)(=O)=O)cccc21 (stereo not drawn) next.
Response: 100 to 500 nM

Prompt: Also CCC(/C=C/C#N)(c1ccc(Cl)cc1)n1ncc2c(N)cccc21 (stereo not drawn) , if possible.
Response: 100 to 500 nM

Prompt: Now give it for COC(=O)C(c1cccc(-c2cccc(OC)c2)c1)n1ccc2c(NS(C)(=O)=O)cccc21 (stereo not drawn) too.
Response: 500 to 5000 nM
